Each recorded value in this set is attributed to PubChem BioAssay (NCI).

Tested on: MCF7 breast
PROTOCOL_SUMMARY: NCI tumour cell line growth inhibition, 48 h

COMPOUND	TGI
O=c1c2sccc2n(CC2COc3ccccc3O2)c(=O)n1O (stereo not given)	> 100 µM
CC1=NN(c2cccc(Cl)c2)C2(C1=C/C=C/c1ccccc1)C(Cl)C(=O)N2c1nc2ccccc2s1 (stereo not given)	> 100 µM
CS(=O)(=O)OCC(CCl)(CCl)CCl	> 100 µM
CC[C@H](Nc1ncnc2nc[nH]c12)c1oc2ccccc2c(=O)c1-c1cccc(F)c1	> 100 µM
NC1(C(=O)OCc2ccccc2)CCCC1	> 100 µM
CN(C)c1ccc(C(=N/N=C2\C(=O)Nc3ccccc32)c2ccc(N(C)C)cc2)cc1	2.72 µM
OCCc1ccsc1-c1sc(-c2cc(CCO)c(-c3sccc3CCO)s2)cc1CCO	31 µM
CCCSCC(P(=O)(O)O)P(=O)(O)O	> 100 µM
CS(=O)c1ncc2c(n1)-c1ccccc1OC2 (stereo not given)	> 100 µM
Cc1ccc2c(c1)C(=O)C1(Cc3ccccc3C1=O)C2 (stereo not given)	> 100 µM
O=C(Nc1ccc(Cl)cc1)c1cccc(NC2=C(Cl)C(=O)N(Cc3ccccc3)C2=O)c1	42.3 µM
CCOC(=O)c1cc2nc3ccccc3c(=O)n2c2ccccc12	> 10 µM
NS(=O)(=O)c1cc2c(cc1Cl)NC(CCC(=O)O)=NS2(=O)=O	> 100 µM
COc1ccc(NC(=O)CC(=O)N2N=C(N3c4ccccc4Sc4ccccc43)CC2c2ccccc2)cc1 (stereo not given)	> 100 µM
COc1ccc(-c2nnc(COc3ccc(C(=O)/C=C/c4ccco4)cc3)o2)cc1	3.28 µM
O=C(O)c1ccccc1CC1Cc2ccccc2C1=O (stereo not given)	> 100 µM
COc1cc(NS(C)(=O)=O)ccc1Nc1cc(C)[nH]c2ccc3nccc3c12	> 100 µM
NS(=O)(=O)c1cc(Cl)c(NC(=S)NC(=O)Nc2ccc(Cl)c(Cl)c2)c(Cl)c1	53.8 µM
CCN(CC)CCN(C(=Nc1ccccc1)N1CCOCC1)c1ccccc1	> 100 µM
O=C(/C=C/c1ccc(Cl)cc1)c1ccc(Nc2ccnc3cc(Cl)ccc23)cc1	> 100 µM
CCN(CC)/C(SCc1ccccc1)=C(\C(Cl)=C(Cl)Cl)[N+](=O)[O-]	32.1 µM
Cc1cc(I)cc(CN(C)CCCN2CCCCC2)c1O	35.9 µM
Cc1cn(C2CC(O)C(CO)O2)c(=O)[nH]c1=O (stereo not given)	> 4300 µM
O=C(O)/C=C(/C(=O)O)C12CCN3CC4=CCOC5CC(=O)NC1C5C4CC32 (stereo not given)	> 100 µM
Cc1cccc2c1CC1(C2)Cc2c(C)cccc2C1=O (stereo not given)	94.7 µM
N#CC(C#N)=CNC(N)=S	> 100 µM
CC1(C)CCCC2OC2CCC(C)(C)C1=O (stereo not given)	> 100 µM
O=C(/C=C/c1ccc2c(c1)OCO2)CC(=O)C(=O)c1c[nH]c2ccccc12	> 100 µM
COc1ncnc(NS(=O)(=O)c2ccc(N=C3C(=O)N(CN4CCN(c5c(F)cc6c(=O)c(C(=O)O)cn(C7CC7)c6c5OC)CC4C)c4ccc(Cl)cc43)cc2)c1OC (stereo not given)	> 50 µM
O=C(Nc1nccs1)c1c(O)nc2sccn2c1=O	> 10 µM
